- System: HOP-62 NSCLC
- Test Method Notes: NCI tumour cell line growth inhibition, 48 h; in the data active = GI50 below about 0.43 µM; inactive = the rest
Hi! Could you answer with just one of these? active, inactive

Solved entries (count: 5):
COc1ccc(-c2csc(NC(=O)c3cc(O)c(O)c(O)c3)n2)cc1 | inactive
O=C1CS/C(=N\S(=O)(=O)c2ccc(N3N=C4c5ccccc5CC4C3c3ccc(Cl)cc3)cc2)N1c1ccccc1 (configuration not stated) | inactive
N#Cc1ccc2c(c1)C(=O)c1c-2n(CCCN)c(=O)c2cc([N+](=O)[O-])ccc12 | active
Fc1ccc2[nH]cc(SSc3c[nH]c4ccc(F)cc34)c2c1 | inactive
NC(=O)c1ccc2nc3c(n2c1)C(=O)C(=O)c1ccccc1-3 | inactive

Continue with the next molecule.
Exercise: # outcome recorded in this test, key = "Clc1ccc(Nc2ccnc(NCCCNc3ccnc4cc(Cl)ccc34)n2)cc1"
Solution: inactive
